Provenance of the data: patent US20200079833A1

# target: T1, glucose-dependent insulinotropic peptide (gastric inhibitory polypeptide) receptor (GIPR), primary cAMP assay (human, UniProt P48546 22-466)
# T1 sequence (looked up): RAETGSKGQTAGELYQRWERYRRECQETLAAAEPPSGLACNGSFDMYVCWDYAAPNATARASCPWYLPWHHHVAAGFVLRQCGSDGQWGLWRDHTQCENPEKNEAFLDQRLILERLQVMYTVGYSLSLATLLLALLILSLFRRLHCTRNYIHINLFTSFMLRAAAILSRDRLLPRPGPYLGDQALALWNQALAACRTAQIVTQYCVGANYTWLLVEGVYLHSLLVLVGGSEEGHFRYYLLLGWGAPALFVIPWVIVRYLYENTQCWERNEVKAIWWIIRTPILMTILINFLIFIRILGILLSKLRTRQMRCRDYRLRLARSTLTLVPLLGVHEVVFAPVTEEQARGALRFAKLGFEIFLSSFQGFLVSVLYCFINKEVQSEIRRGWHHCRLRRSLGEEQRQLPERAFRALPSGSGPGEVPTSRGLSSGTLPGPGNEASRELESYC
# test_details: cell-based or functional assay
Starred links: 1 amine or outer side, 2 acyl side, 3 side chain; linkers in the order of their positions; H or OH if unused. Non-standard residues stand in square brackets, D forms with d. Groups on a side chain read outwards from the residue. Primed or numbered codes have the meaning given here. No end group written: not given here. *: point of attachment. γGlu = O=C(O)[C@H](CCC(=O)[*:2])N[*:1]; Stearoyl = CCCCCCCCCCCCCCCCCC(=O)*; Palmitoyl = CCCCCCCCCCCCCCCC(=O)*; αMeF = C[C@](N)(Cc1ccccc1)C(=O)O; αMeK = C[C@](N)(CCCCN)C(=O)O; αMeS = C[C@](N)(CO)C(=O)O; PEG2′ = not defined here; Aib = CC(C)(N)C(=O)O
measure_name: Primary assay EC50 (cAMP), n1 (nM)

| binder | uom | Primary assay EC50 (cAMP), n1 |
| --- | --- | --- |
| H[Aib]EGS[αMeF]TSDV[αMeS]SK([PEG2′-PEG2′-γGlu-Stearoyl])LEGEAA[αMeK]E[αMeF]IAK([PEG2′-PEG2′-γGlu-Stearoyl])VVEGG-NH2 [SEQ ID NO: 410] | nM | 21.5 |
| H[Aib]EGS[αMeF]TSDV[αMeS]SK([PEG2′-PEG2′-γGlu-Palmitoyl])LEGEAA[αMeK]EFIAWK([PEG2′-PEG2′-γGlu-Palmitoyl])VEGG-NH2 [SEQ ID NO: 267] | nM | 21.7 |
